- assayed_system: PI3Kδ (Homo sapiens)
- Construct: made in house
- Sequence (O00329 whole entry): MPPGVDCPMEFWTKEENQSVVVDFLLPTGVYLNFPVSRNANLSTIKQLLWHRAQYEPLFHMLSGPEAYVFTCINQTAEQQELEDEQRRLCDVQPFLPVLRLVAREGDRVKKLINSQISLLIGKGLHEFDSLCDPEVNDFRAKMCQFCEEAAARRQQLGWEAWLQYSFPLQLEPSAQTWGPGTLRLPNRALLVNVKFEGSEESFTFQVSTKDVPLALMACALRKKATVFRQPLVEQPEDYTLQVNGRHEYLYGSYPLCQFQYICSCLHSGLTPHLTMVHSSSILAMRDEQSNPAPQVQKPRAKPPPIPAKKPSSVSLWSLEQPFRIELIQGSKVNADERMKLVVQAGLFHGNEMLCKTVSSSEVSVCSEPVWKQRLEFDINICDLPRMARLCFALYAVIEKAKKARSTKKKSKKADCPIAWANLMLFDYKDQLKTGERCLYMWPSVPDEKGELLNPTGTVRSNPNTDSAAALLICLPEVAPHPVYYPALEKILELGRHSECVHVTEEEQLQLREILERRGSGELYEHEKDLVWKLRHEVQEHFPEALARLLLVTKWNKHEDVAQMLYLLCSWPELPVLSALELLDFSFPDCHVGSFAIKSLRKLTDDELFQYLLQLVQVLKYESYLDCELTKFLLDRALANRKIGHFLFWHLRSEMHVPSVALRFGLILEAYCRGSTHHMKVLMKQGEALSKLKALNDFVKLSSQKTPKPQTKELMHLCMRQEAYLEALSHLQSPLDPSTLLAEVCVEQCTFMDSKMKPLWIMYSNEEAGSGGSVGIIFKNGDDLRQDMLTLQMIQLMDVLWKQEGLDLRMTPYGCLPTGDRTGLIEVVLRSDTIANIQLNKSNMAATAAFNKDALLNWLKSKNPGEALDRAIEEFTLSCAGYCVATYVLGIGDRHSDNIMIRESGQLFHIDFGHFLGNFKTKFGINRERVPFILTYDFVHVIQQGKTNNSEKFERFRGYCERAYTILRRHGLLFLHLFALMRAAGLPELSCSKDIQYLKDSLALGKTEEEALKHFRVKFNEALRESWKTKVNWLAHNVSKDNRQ
- Sequence (P27986 whole entry partner): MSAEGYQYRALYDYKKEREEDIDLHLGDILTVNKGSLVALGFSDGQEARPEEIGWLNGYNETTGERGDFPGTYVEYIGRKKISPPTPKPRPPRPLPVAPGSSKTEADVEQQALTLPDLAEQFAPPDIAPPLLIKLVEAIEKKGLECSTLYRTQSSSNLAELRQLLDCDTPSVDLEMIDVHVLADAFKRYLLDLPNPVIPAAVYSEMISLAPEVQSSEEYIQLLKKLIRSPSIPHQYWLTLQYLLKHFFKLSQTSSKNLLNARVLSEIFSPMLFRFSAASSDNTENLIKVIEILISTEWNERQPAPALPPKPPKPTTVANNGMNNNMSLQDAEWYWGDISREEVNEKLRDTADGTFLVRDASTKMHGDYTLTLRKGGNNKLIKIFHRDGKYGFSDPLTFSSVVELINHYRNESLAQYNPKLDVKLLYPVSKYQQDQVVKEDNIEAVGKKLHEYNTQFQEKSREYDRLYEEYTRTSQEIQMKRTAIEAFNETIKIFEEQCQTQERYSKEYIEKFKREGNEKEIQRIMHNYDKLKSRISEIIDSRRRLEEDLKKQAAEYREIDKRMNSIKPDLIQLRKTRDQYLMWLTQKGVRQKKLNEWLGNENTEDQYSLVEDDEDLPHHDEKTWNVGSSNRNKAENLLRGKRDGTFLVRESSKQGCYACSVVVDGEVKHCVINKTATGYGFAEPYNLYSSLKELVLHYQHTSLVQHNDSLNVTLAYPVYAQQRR
- assay_summary: Enzymatic activity of PI3K isoforms, TR-FRET assay (PIP3 formation)
- Type: biochemical
- experimental_conditions: PI3Kδ; TR-FRET, 2×Km ATP, 10 μM PIP2; read-out: IC50
attribute_measured: IC50

| compound | attribute_measured | val |
| --- | --- | --- |
| CC[C@H](Nc1nc(N)nc(N)c1C#N)c1nc2cccc(F)c2c(=O)n1-c1cc(F)cc(F)c1 [Compound 77a] | IC50 | 1 to 10 nM |
| CC(Nc1nc(N)nc(N)c1C#N)c1nc2ccccc2c(=O)n1-c1cc(F)cc(F)c1 (single isomer, unassigned) [Compound 28a] | IC50 | 10 to 50 nM |
| CCC(Nc1nc(N)nc(N)c1C#N)c1nc2c(F)ccc(F)c2c(=O)n1-c1cccc(C#N)c1 (single isomer, unassigned) [Compound 152a] | IC50 | 10 to 50 nM |
| CC(Nc1nc(N)nc(N)c1C#N)c1nc2ccc(F)cc2c(=O)n1-c1cccc(Cl)c1 (single isomer, unassigned) [Compound 14a] | IC50 | 1 to 10 nM |
| Cc1c(F)cccc1-n1c(C(C)Nc2nc(N)nc(N)c2C#N)nc2cccc(Cl)c2c1=O (single isomer, unassigned) [Compound 199a-2] | IC50 | 1 to 10 nM |
| Cc1cccc2c(=O)n(-c3ccccc3)c(C(C)Nc3nc(N)nc(N)c3C#N)nc12 (single isomer, unassigned) | IC50 | 1 to 10 nM |
| Cc1c(-n2c(C(C)Nc3nc(N)nc(N)c3C#N)nc3cccc(Cl)c3c2=O)ccc(F)c1F (single isomer, unassigned) [Compound 204a-1] | IC50 | 10 to 50 nM |
| Cc1ccc(F)c2nc(C(C)Nc3nc(N)nc(N)c3C#N)n(-c3cc(F)cc(F)c3)c(=O)c12 (single isomer, unassigned) [Compound 25a] | IC50 | < 1 nM |
| CC(Nc1nc(N)nc(N)c1C#N)c1nc2cccc(Cl)c2c(=O)n1-c1cc(Cl)cc(C(F)F)c1 (single isomer, unassigned) [Compound 115a] | IC50 | 1 to 10 nM |
| CCC(Nc1nc(N)nc(N)c1C#N)c1nc2cccc(Cl)c2c(=O)n1-c1cc(F)cc(C(F)F)c1 (single isomer, unassigned) [Compound 66a] | IC50 | 1 to 10 nM |
| CC(Nc1nc(N)nc(N)c1C#N)c1nc2cccc(S(C)(=O)=O)c2c(=O)n1-c1cccc(C(F)F)c1 (single isomer, unassigned) [Compound 116a] | IC50 | 1 to 10 nM |
| CC(Nc1nc(N)nc(N)c1C#N)c1nc2cccc(S(C)(=O)=O)c2c(=O)n1-c1ccccc1F (single isomer, unassigned) [Compound 142a-2] | IC50 | 1 to 10 nM |

###

Consider the following molecules and their measured half-life at 2 μM readings.
- assay_summary: Hepatocyte stability, 1% final DMSO, 2 μM substrate (t1/2^a)
- Assay type: in vitro ADME
- experimental_conditions: human, cryopreserved hepatocytes, TA with 1% final DMSO, 2 μM substrate, samples at 0, 1, 2, 4 hours; read-out: human hepatocyte t½^a
- Procedure: This assay was used to evaluate the metabolic stability of test articles (TA) following incubation in cryopreserved hepatocytes by monitoring parent drug disappearance via […]. The TA with 1% final DMSO concentration was incubated with 1 million hepatocytes/ml at 2 μM substrate in duplicate. The incubation was carried out at 37° C. with 5% CO2 and saturating humidity.
attribute_measured: half-life at 2 μM

| molecule | attribute_measured | val |
| --- | --- | --- |
| Cc1ccc(F)c2nc(C(C)Nc3nc(N)nc(N)c3C#N)n(-c3cc(F)cc(C#N)c3)c(=O)c12 (single isomer, unassigned) [Compound 31a] | half-life at 2 μM | 6 to 10 h |
| CCC(Nc1nc(N)nc(N)c1C#N)c1nc2c(F)ccc(F)c2c(=O)n1-c1cc(F)cc(F)c1 (single isomer, unassigned) [Compound 27a] | half-life at 2 μM | > 10 h |
| CC(C)c1cccc(-n2c(C(C)Nc3nc(N)nc(N)c3C#N)nc3cccc(Cl)c3c2=O)c1 (single isomer, unassigned) [Compound 107a] | half-life at 2 μM | < 1 h |
| CC(Nc1nc(N)nc(N)c1C#N)c1nc2cccc(F)c2c(=O)n1-c1cccc(C(F)F)c1 (single isomer, unassigned) [Compound 97a] | half-life at 2 μM | > 10 h |
| CC(Nc1nc(N)nc(N)c1C#N)c1nc2c(C#N)cccc2c(=O)n1-c1ccccc1 (single isomer, unassigned) [Compound 122a] | half-life at 2 μM | > 10 h |
| Cc1cccc2c(=O)n(-c3cc(F)cc(F)c3)c(C(C)Nc3nc(N)nc(N)c3C#N)nc12 (single isomer, unassigned) [Compound 75a] | half-life at 2 μM | > 10 h |
| COc1cc(F)cc(-n2c(C(C)Nc3nc(N)nc(N)c3C#N)nc3cccc(Cl)c3c2=O)c1 (single isomer, unassigned) [Compound 192a] | half-life at 2 μM | 1 to 3 h |
| CC(Nc1nc(N)nc(N)c1C#N)c1nc2c(Cl)cccc2c(=O)n1-c1cc(F)cc(F)c1 (single isomer, unassigned) [Compound 71a] | half-life at 2 μM | > 10 h |
| CC(Nc1nc(N)nc(N)c1C#N)c1nc2c(F)ccc(Cl)c2c(=O)n1-c1cc(F)cc(C#N)c1 (single isomer, unassigned) [Compound 48a] | half-life at 2 μM | > 10 h |
| CC(Nc1nc(N)nc(N)c1C#N)c1nc2cccc(F)c2c(=O)n1-c1cc(F)cc(F)c1 (single isomer, unassigned) [Compound 10a] | half-life at 2 μM | > 10 h |
| CC(Nc1nc(N)nc(N)c1C#N)c1nc2c(Cl)ccc(Cl)c2c(=O)n1-c1cc(F)cc(F)c1 (single isomer, unassigned) [Compound 74a] | half-life at 2 μM | 3 to 6 h |
| CC(Nc1nc(N)nc(N)c1C#N)c1nc2cccc(Cl)c2c(=O)n1-c1cccc(C(F)F)c1 (single isomer, unassigned) [Compound 106a] | half-life at 2 μM | > 10 h |
